Target: human glucagon receptor (Homo sapiens (Human), UniProt P47871)
Sequence (P47871 26-477): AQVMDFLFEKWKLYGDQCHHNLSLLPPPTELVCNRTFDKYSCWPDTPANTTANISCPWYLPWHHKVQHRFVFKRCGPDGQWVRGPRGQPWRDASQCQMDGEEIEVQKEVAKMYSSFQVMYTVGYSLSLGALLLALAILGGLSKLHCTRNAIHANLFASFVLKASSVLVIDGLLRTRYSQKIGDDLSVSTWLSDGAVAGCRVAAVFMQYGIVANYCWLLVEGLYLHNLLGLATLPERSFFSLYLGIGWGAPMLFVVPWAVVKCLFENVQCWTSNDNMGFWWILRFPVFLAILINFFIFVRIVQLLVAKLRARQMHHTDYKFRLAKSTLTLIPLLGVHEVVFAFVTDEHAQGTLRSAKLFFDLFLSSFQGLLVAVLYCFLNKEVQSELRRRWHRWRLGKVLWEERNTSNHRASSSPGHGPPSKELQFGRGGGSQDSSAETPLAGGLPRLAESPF
Test: Glucagon cAMP Assay (Cisbio cAMP detection)
Assay type: cell-based
Details: CHOK1 cells stably transfected with the human glucagon receptor; block of glucagon induced cAMP production; Kb by modified Cheng-Prusoff equation

{"compound": "CCCC(Oc1ccc(-n2cc3ccccc3n2)c(C)c1)c1ccc(C(=O)NCCC(=O)O)cc1 (single isomer, unassigned) [Example 116]", "assay-system": "human glucagon receptor (Homo sapiens (Human), UniProt P47871)", "Kb (nM)": 450}
{"compound": "CCCC(Oc1ccc(-n2cc3cccc(Cl)c3n2)cc1)c1ccc(C(=O)NCCC(=O)O)cc1 (stereo not shown) [Example 139]", "assay-system": "human glucagon receptor (Homo sapiens (Human), UniProt P47871)", "Kb (nM)": 147}
{"compound": "CCCC(Nc1ccc(-n2cc(-c3ccccn3)cn2)nc1)c1ccc(C(=O)NCCC(=O)O)cc1 (racemic) [Example 164]", "assay-system": "human glucagon receptor (Homo sapiens (Human), UniProt P47871)", "Kb (nM)": 52.4}
{"compound": "O=C(O)CCNC(=O)c1ccc(C(Nc2ccc(-n3cnc(C(F)(F)F)c3)nc2)C2CCCC2)cc1 (racemic) [Example 8]", "assay-system": "human glucagon receptor (Homo sapiens (Human), UniProt P47871)", "Kb (nM)": 155}
{"compound": "CCCC(Oc1ccc(-n2ccc(C(F)(F)F)n2)cc1)c1ccc(C(=O)NCCC(=O)O)cc1 (racemic) [Example 70]", "assay-system": "human glucagon receptor (Homo sapiens (Human), UniProt P47871)", "Kb (nM)": 1910}
{"compound": "CCCC(Oc1ccc(-c2ccnn2C)cc1)c1ccc(C(=O)NCCC(=O)O)cc1 (racemic) [Example 57]", "assay-system": "human glucagon receptor (Homo sapiens (Human), UniProt P47871)", "Kb (nM)": 6100}
{"compound": "CC(C)(C)[C@H](Nc1ccc(-n2cnc(C(F)(F)F)c2)nc1)c1ccc(C(=O)NCCC(=O)O)cc1 (single isomer, unassigned; isomer 2) [Example 183]", "assay-system": "human glucagon receptor (Homo sapiens (Human), UniProt P47871)", "Kb (nM)": 154}

* * *

Target: human glucagon receptor (Homo sapiens (Human))
readout-name: Ki (nM)

{"molecule": "O=C(O)CCNC(=O)c1ccc(C(Nc2ccc(-n3cc(C(F)(F)F)cn3)nc2)C2CCC2)cc1 (racemic) [Example 106]", "readout-name": "Ki", "unit-spec": "nM", "value-observed": 91.9}
{"molecule": "CCCC(Nc1ccc(-n2cnc(-c3ccccc3)c2)nc1)c1ccc(C(=O)NCCC(=O)O)cc1 (single isomer, unassigned) [Example 129]", "readout-name": "Ki", "unit-spec": "nM", "value-observed": 29.3}
{"molecule": "O=C(O)CCNC(=O)c1ccc(C(Nc2ccc(-n3cc(C(F)(F)F)cn3)nc2)C2CCCCC2)cc1 (racemic) [Example 101]", "readout-name": "Ki", "unit-spec": "nM", "value-observed": 17}
{"molecule": "CC1(C)CC(C(Oc2cnc(-n3cc(C(F)(F)F)cn3)nc2)c2ccc(C(=O)NCCC(=O)O)cc2)C1 (single isomer, unassigned; isomer 1) [Example 155]", "readout-name": "Ki", "unit-spec": "nM", "value-observed": 94.9}
{"molecule": "CCCC(Oc1ccc(-n2cc3cccc(Cl)c3n2)cc1)c1ccc(C(=O)NCCC(=O)O)cc1 (stereo not shown) [Example 139]", "readout-name": "Ki", "unit-spec": "nM", "value-observed": 354}
{"molecule": "CC1(C)CC([C@H](Nc2ccc(-n3cc(C4CC4)cn3)nc2)c2ccc(C(=O)NCCC(=O)O)cc2)C1 (single isomer, unassigned; isomer 2) [Example 175]", "readout-name": "Ki", "unit-spec": "nM", "value-observed": 28.7}
{"molecule": "CCCC(Oc1cc(C)c(-n2cc(C(F)(F)F)cn2)c(OC)c1)c1ccc(C(=O)NCCC(=O)O)cc1 (racemic) [Example 153]", "readout-name": "Ki", "unit-spec": "nM", "value-observed": 32.3}
{"molecule": "CCCC(Nc1ccc(-n2cc(-c3ccccc3)cn2)nc1)c1ccc(C(=O)NCCC(=O)O)cc1 (single isomer, unassigned; isomer 1) [Example 160]", "readout-name": "Ki", "unit-spec": "nM", "value-observed": 29}
{"molecule": "Cc1cc(OC(c2ccc(C(=O)NCCC(=O)O)cc2)C2CCCC2)cc(C)c1-n1cnc(C(F)(F)F)c1 (stereo not shown) [Example 131]", "readout-name": "Ki", "unit-spec": "nM", "value-observed": 51}
{"molecule": "CCCC(Oc1cnc(-n2cc(C(F)(F)F)cn2)c(C)c1)c1ccc(C(=O)NCCC(=O)O)cc1 (racemic) [Example 150]", "readout-name": "Ki", "unit-spec": "nM", "value-observed": 446}
{"molecule": "CCC[C@H](Oc1cc(C)c(-n2cc3ccccc3n2)c(C)c1)c1ccc(C(=O)NCCC(=O)O)cc1 [Example 187]", "readout-name": "Ki", "unit-spec": "nM", "value-observed": 47.8}
{"molecule": "CCCC(Oc1cc(C)c(-n2cc(Cl)cn2)c(C)c1)c1ccc(C(=O)NCCC(=O)O)cc1 (stereo not shown) [Example 130]", "readout-name": "Ki", "unit-spec": "nM", "value-observed": 116}
{"molecule": "CC(C)C[C@H](Nc1ccc(C(=O)NCCC(=O)O)cn1)c1ccc(-n2cc(C(F)(F)F)cn2)nc1 (single isomer, unassigned) [Example 142]", "readout-name": "Ki", "unit-spec": "nM", "value-observed": 636}
{"molecule": "O=C(O)CCNC(=O)c1ccc(C(Nc2ccc(-n3cnc(C(F)(F)F)c3)nc2)C(F)(F)F)cc1 (racemic) [Example 121]", "readout-name": "Ki", "unit-spec": "nM", "value-observed": 298}
{"molecule": "O=C(O)CCNC(=O)c1ccc([C@@H](Nc2ccc(-n3cc(C(F)(F)F)cn3)nc2)C2CCCCC2)cc1 (single isomer, unassigned) [Example 147]", "readout-name": "Ki", "unit-spec": "nM", "value-observed": 26.7}
{"molecule": "CC(C)(C)[C@H](Nc1ccc(-n2cc(C(F)(F)F)cn2)nc1)c1ccc(C(=O)NCCC(=O)O)cc1 (single isomer, unassigned; isomer 2) [Example 180]", "readout-name": "Ki", "unit-spec": "nM", "value-observed": 10.3}
{"molecule": "O=C(O)CCNC(=O)c1ccc(C(Oc2ccc(-n3cc4ccccc4n3)cc2)C2CCCC2)cc1 (racemic) [Example 119]", "readout-name": "Ki", "unit-spec": "nM", "value-observed": 103}
{"molecule": "O=C(O)CCNC(=O)c1ccc(C(CC2CC2)Nc2ccc(-n3cc(C(F)(F)F)cn3)nc2)cc1 (racemic) [Example 107]", "readout-name": "Ki", "unit-spec": "nM", "value-observed": 71.6}
{"molecule": "CCCC(Oc1ccc(-n2cc3c(C)cccc3n2)cc1)c1ccc(C(=O)NCCC(=O)O)cc1 (stereo not shown) [Example 127]", "readout-name": "Ki", "unit-spec": "nM", "value-observed": 316}
{"molecule": "O=C(O)CCNC(=O)c1ccc([C@@H](Nc2ccc(-n3cc(C(F)(F)F)cn3)nc2)C2CCCCC2)cc1 (single isomer, unassigned) [Example 146]", "readout-name": "Ki", "unit-spec": "nM", "value-observed": 9.05}
{"molecule": "CC(C)(C)C(Nc1ccc(-n2cc(C(F)(F)F)cn2)nc1)c1ccc(C(=O)NCCC(=O)O)cc1 (racemic) [Example 178]", "readout-name": "Ki", "unit-spec": "nM", "value-observed": 37.4}
{"molecule": "Cc1cc(C(Nc2ccc(C(=O)NCCC(=O)O)cn2)C2CCCC2)cc(C)c1-n1cc(C(F)(F)F)cn1 (single isomer, unassigned; isomer 1) [Example 170]", "readout-name": "Ki", "unit-spec": "nM", "value-observed": 224}
{"molecule": "CCCC(Oc1cc(C)c(-n2cc(Cl)cn2)c(C)c1)c1ccc(C(=O)NCCC(=O)O)cc1 (single isomer, unassigned) [Example 145]", "readout-name": "Ki", "unit-spec": "nM", "value-observed": 93.2}
{"molecule": "CCCC(Nc1ccc(-n2cc(CC)c(C)n2)nc1)c1ccc(C(=O)NCCC(=O)O)cc1 (single isomer, unassigned; isomer 1) [Example 166]", "readout-name": "Ki", "unit-spec": "nM", "value-observed": 91.5}
{"molecule": "CC1(C)CC(C(Nc2cnc(-n3cc(C(F)(F)F)cn3)nc2)c2ccc(C(=O)NCCC(=O)O)cc2)C1 (single isomer, unassigned; isomer 1) [Example 157]", "readout-name": "Ki", "unit-spec": "nM", "value-observed": 5.55}

* * *

Target: human glucagon receptor (Homo sapiens (Human), UniProt P47871)
Assay: Glucagon cAMP Assay (Cisbio cAMP detection)
Format: cell-based
Conditions: CHOK1 cells stably transfected with the human glucagon receptor; block of glucagon induced cAMP production; Kb by modified Cheng-Prusoff equation
# Lookup of reported Kb keyed by entry
readout-name: Kb (nM)

{"molecule": "O=C(O)CCNC(=O)c1ccc(C(Nc2ccc(-n3cc(C(F)(F)F)cn3)nc2)C2CCCC2)cc1 (single isomer, unassigned) [Example 96]", "unit-spec": "nM", "value-observed": 871}
{"molecule": "Cc1cc(-n2cc(C(F)(F)F)cn2)ccc1C(Nc1ccc(C(=O)NCCC(=O)O)cn1)C1CCCCC1 (single isomer, unassigned) [Example 118]", "unit-spec": "nM", "value-observed": 1020}
{"molecule": "CCCC(Oc1ccc(-n2nc(CC)cc2CC)cc1)c1ccc(C(=O)NCCC(=O)O)cc1 (racemic) [Example 25]", "unit-spec": "nM", "value-observed": 1120}
